target: Human CDK12 wt/CycK (Homo sapiens (Human), UniProt Q9NYV4); test: Radiometric protein kinase assay (33PanQinase Activity Assay), CDK12; format: biochemical; conditions: ATP 0.3 μM; read-out: CDK12 IC50
Sequence (Q9NYV4 whole entry): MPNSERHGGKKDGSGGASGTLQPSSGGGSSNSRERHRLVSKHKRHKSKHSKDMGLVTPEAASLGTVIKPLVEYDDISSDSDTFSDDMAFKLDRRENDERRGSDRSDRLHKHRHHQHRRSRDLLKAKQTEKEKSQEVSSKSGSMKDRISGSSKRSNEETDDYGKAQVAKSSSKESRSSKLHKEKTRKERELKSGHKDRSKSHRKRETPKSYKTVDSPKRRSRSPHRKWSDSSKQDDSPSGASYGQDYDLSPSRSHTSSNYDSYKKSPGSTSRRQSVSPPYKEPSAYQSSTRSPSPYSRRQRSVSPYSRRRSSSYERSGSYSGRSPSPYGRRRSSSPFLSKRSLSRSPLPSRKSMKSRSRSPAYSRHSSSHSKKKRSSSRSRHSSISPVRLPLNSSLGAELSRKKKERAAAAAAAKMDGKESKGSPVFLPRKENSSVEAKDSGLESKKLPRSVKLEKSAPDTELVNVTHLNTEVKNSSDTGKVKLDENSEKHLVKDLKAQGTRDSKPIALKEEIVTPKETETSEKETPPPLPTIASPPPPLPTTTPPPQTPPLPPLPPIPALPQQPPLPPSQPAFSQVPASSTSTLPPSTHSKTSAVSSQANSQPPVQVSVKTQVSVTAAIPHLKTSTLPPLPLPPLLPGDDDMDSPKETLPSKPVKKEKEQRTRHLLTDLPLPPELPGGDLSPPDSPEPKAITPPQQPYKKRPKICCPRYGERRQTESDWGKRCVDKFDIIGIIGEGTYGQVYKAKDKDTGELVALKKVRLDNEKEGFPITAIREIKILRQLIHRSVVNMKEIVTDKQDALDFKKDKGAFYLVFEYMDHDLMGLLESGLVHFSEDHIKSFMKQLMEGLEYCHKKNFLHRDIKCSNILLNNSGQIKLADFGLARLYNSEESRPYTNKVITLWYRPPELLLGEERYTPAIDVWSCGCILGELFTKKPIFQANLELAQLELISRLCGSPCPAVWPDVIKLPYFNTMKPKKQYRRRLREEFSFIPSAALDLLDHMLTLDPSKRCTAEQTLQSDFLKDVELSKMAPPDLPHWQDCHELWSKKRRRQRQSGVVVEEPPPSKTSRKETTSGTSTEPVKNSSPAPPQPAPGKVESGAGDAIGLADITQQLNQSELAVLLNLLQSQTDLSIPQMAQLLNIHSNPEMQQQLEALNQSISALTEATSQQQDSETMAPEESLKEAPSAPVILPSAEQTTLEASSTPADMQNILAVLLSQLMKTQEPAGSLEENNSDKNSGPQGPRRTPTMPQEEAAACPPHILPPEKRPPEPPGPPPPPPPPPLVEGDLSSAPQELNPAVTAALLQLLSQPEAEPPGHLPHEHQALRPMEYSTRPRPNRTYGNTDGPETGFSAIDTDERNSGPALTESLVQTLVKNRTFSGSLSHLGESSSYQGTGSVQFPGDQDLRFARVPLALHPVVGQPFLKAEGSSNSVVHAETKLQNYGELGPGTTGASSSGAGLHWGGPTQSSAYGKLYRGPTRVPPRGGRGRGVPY
Sequence (O75909 whole entry partner): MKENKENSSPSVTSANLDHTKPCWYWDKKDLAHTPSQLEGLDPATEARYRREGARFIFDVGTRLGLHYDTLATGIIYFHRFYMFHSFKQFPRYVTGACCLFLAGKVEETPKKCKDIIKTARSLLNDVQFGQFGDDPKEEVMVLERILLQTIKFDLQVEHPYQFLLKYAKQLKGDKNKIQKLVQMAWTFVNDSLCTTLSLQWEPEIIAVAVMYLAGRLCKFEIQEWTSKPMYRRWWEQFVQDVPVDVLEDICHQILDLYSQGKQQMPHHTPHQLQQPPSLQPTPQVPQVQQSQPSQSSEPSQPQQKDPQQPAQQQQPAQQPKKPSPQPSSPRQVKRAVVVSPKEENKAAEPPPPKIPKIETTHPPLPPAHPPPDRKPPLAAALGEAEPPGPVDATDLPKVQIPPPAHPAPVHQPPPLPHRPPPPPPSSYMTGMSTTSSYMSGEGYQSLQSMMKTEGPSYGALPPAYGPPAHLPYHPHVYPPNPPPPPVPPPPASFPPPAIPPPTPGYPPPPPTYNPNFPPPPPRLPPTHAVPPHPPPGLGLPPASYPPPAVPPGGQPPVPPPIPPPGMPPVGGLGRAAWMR
Endpoint name: pIC50
API: returns pIC50 as number; meaning -log10 of concentration in mol/L.

Q: Quick one: pIC50 for O=C1C[C@H](Nc2cc(NCc3ccc(-c4ccccn4)cc3)n3ncc(C4CC4)c3n2)CN1 [PPA-075] ?
A: 6.84

Q: Which pIC50 is reported for this compound? CC(C)c1cnn2c(NCc3ccc(-c4ccccn4)cc3)cc(NC[C@H]3CCNC[C@@H]3O)nc12 [PPA-001]
A: 7.21

Q: So what's the measured pIC50 for this one? O[C@H]1CNCC[C@@H]1CNc1cc(NCc2ccc(-c3ccccc3)cn2)n2ncc(C3CC3)c2n1 [PPA-034]
A: 6.92
